# Measurement setup: human gut metagenome, 24 h, 2 µM; further: call rule not given here
Where a SMILES comes first, the peptide text is derived from it. [ ]: non-standard residue; d: D form. pGlu = O=C1CC[C@@H](C(=O)O)N1; Thz = O=C(O)[C@@H]1CSCN1
Measured metric: Bacterial Biotransformation

compound="O=C1CC[C@@H](C(=O)N2CSC[C@H]2C(=O)O)N1 [PIDOTIMOD] ([pGlu]-[Thz]-OH)" measured_metric="Bacterial Biotransformation" observed_value="Compound metabolized"
compound="NS(=O)(=O)c1cc2c(cc1Cl)N=C(CSCc1ccccc1)NS2(=O)=O [BENZTHIAZIDE]" measured_metric="Bacterial Biotransformation" observed_value="Compound NOT metabolized"
compound="Cc1nc2n(c(=O)c1CCN1CCC(c3noc4cc(F)ccc34)CC1)CCCC2O (configuration not stated)" measured_metric="Bacterial Biotransformation" observed_value="Compound metabolized"
compound=C=CCN1CC[C@]23c4c5ccc(O)c4O[C@H]2C(=O)CC[C@@]3(O)[C@H]1C5 measured_metric="Bacterial Biotransformation" observed_value="Compound NOT metabolized"
compound="CN1CCC(=C2c3ccccc3CCc3cccnc32)CC1.O=C(O)/C=C\\C(=O)O.O=C(O)/C=C\\C(=O)O [AZATADINE MALEATE]" measured_metric="Bacterial Biotransformation" observed_value="Compound NOT metabolized"
compound="CN1C(=O)CC(C)(c2ccccc2)C1=O (configuration not stated) [METHSUXIMIDE]" measured_metric="Bacterial Biotransformation" observed_value="Compound metabolized"

Here is another compound to look at.
Answer with reported Bacterial Biotransformation of O=C(CCCN1CCC(O)(c2ccc(Cl)cc2)CC1)c1ccc(F)cc1
Compound NOT metabolized
